system name: Fuc(a1-2)[GalNAc(a1-3)]Gal(b1-4)GlcNAc(b1-2)Man(a1-3)[Fuc(a1-2)[GalNAc(a1-3)]Gal(b1-4)GlcNAc(b1-2)Man(a1-6)]Man(b1-4)GlcNAc(b1-4)GlcNAc
procedure text: glycan array binding signal (z-score within array); higher = stronger binding
test context: glycan notation: IUPAC condensed, linker removed
This is one part of a sample in which the strongest signals are shown more often than they occur.
Reported glycan array binding signal (z-score) is given for each of the following binders.
# respond with the number and nothing more

Recorded glycan array binding signal (z-score), per entry:
binder	glycan array binding signal (z-score)
Sebin2 (Coprinopsis cinerea), A8PE78 (protein) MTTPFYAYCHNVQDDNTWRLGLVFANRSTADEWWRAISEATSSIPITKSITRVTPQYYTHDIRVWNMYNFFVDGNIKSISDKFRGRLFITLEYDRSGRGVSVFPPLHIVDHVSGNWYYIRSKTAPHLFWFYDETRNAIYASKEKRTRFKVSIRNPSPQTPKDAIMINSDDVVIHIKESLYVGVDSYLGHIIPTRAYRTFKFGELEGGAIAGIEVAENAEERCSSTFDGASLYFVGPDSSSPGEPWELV	0.273
Clec18A (Homo sapiens) (protein) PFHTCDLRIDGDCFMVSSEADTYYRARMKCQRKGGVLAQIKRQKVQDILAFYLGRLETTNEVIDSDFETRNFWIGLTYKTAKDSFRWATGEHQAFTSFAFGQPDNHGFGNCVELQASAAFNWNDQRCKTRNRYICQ	4.62
DC-Sign-R (Homo sapiens), Q9H2X3 (protein) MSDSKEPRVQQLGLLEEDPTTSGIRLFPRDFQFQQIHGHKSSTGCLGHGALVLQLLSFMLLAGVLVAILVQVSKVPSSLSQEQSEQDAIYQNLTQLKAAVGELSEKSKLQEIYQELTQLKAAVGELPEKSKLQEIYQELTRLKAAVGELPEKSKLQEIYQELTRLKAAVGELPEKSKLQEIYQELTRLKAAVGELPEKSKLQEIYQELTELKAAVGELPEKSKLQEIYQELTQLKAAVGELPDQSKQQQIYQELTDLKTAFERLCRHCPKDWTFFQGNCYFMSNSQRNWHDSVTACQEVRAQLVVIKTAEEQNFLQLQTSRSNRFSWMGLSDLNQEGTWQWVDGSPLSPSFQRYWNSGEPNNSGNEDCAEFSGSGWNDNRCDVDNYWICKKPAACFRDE	-0.72

input: Quick one: glycan array binding signal (z-score) of CLECb-Precomplexed (Mus musculus), P43025 (protein) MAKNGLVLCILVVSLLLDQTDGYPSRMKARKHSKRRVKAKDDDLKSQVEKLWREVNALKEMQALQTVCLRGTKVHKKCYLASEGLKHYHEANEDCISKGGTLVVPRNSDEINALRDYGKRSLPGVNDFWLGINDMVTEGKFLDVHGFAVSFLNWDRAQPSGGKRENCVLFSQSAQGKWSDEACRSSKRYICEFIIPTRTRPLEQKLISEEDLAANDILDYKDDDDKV ?
output: -0.336

input: Quick one: glycan array binding signal (z-score) of AT5G01260(PC)(40) (Arabidopsis thaliana), Q9LFB0 (protein) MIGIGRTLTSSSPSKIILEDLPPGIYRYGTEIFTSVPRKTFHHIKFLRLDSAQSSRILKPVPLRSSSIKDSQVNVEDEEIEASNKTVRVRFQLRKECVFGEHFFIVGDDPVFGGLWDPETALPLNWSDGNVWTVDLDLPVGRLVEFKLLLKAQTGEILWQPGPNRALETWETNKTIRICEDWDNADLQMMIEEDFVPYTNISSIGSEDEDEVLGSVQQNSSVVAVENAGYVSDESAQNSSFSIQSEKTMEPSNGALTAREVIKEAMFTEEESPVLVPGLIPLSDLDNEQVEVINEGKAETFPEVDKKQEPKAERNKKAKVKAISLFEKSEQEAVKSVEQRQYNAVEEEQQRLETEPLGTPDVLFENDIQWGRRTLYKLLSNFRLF ?
output: -0.648
